Data origin, for the record: patent US20060217345A1

I'd appreciate it if you could supply Cytotoxicity (CD50), concentration resulting in 50% inhibition of proliferation values for the items below.
- System: HepG2 cells
- procedure text: Cytotoxicity: inhibition of proliferation of HepG2 cells
- Assay type: cell-based, human
- study conditions: Hep G2 cells, Dulbecco MEM, incubated for two days

Which value of Cytotoxicity (CD50), concentration resulting in 50% inhibition of proliferation has been reported for `Cc1cn([C@H]2O[C@@H](CO)[C@H](O)[C@H]2O)c(=O)nc1N` in the records?
>2000

Which value of Cytotoxicity (CD50), concentration resulting in 50% inhibition of proliferation has been reported for `Cc1cn([C@@H]2C[C@@H](N=[N+]=[N-])[C@H](CO)O2)c(=O)nc1N` in the records?
>2000

Which value of Cytotoxicity (CD50), concentration resulting in 50% inhibition of proliferation has been reported for `Cc1cn([C@@H]2C=C[C@H](CO)O2)c(=O)nc1N` in the records?
1500

Which value of Cytotoxicity (CD50), concentration resulting in 50% inhibition of proliferation has been reported for `Cc1cn([C@@H]2C[C@@H](O)[C@H](CO)O2)c(=O)nc1N` in the records?
>2000
